test system: Saccharomyces cerevisiae; experiment: protein stability index of tFT-peptide fusion (C-terminal peptide) (PSI (0-1 scale)); higher = more stable (slower turnover); conditions: genetic background: wild type; temperature: 30 C
# maps each entry to its protein stability index
Lab note: jot down the number only; don't add units.

Use these answered entries as a reference point.
INSERT INTO measurements (residues, measured_parameter, recorded_result) VALUES
  ('VPPPLASPPVTP', 'protein stability index', 0.698),
  ('VCGGVGGGDNGG', 'protein stability index', 0.739),
  ('WVGGVLLSVVGG', 'protein stability index', 0.245);

q: Query: protein stability index; subject: "GRCSRGVEGVSG"
a: 0.675

q: Moving on to "LGQWGGGLSGSV"
a: 0.685

q: Moving on to "LSTCIMFRSCGG"
a: 0.693

q: Moving on to "LYLCLVSPVVVL"
a: 0.296

q: Moving on to "AKSKVAGNVGGD"
a: 0.669

q: Moving on to "ADPNDSPPPASP"
a: 0.617

q: Moving on to "VFLVLFDRLLPL"
a: 0.669

====

# maps each entry to its protein stability index
system: Saccharomyces cerevisiae; assay: protein stability index of tFT-peptide fusion (C-terminal peptide) (PSI (0-1 scale)); higher = more stable (slower turnover); settings: genetic background: das1 deletion; temperature: 30 C
Lab note: jot down the number only; don't add units.

INSERT INTO assay_data (residues, measured_parameter, recorded_result) VALUES
  ('NNTFLDVQAKSN [IMP1 C-terminal 12 aa]', 'protein stability index', 0.694),
  ('RLKPRQIVPKRS [SLI15 C-terminal 12 aa]', 'protein stability index', 0.719),
  ('IFYLRFPSYIRG [YJR151W-A C-terminal 12 aa]', 'protein stability index', 0.614);

q: Query: protein stability index; subject: YRNIPESKPQGS [YIR021W-A C-terminal 12 aa]
a: 0.681

q: Moving on to KQREKYAAVASK [SOP4 C-terminal 12 aa]
a: 0.692

q: Moving on to LDLQNQNKKNLW [PIN4 C-terminal 12 aa]
a: 0.707

q: Moving on to NASIFTVLSYCS [YEL020C-B C-terminal 12 aa]
a: 0.67

q: Moving on to INKKKSGSGCIC [YPT10 C-terminal 12 aa]
a: 0.696

q: Moving on to AGATTSRFIPLK [RPS15 C-terminal 12 aa]
a: 0.685

q: Moving on to EMTHSLFKKYGI [CRC1 C-terminal 12 aa]
a: 0.705

====

system: Saccharomyces cerevisiae; assay: protein stability index of tFT-peptide fusion (C-terminal peptide) (PSI (0-1 scale)); higher = more stable (slower turnover); conditions: genetic background: wild type; temperature: 30 C
# maps each entry to its protein stability index
Lab note: jot down the number only; don't add units.

q: Query: protein stability index; subject: "PPPPPRAPSLLA"
a: 0.704

q: Moving on to "HDSRIDIASFHV"
a: 0.716

q: Moving on to "VFGAAGVRFFVG"
a: 0.58

q: Moving on to "RNKINKKKLKKG"
a: 0.74

q: Moving on to "AGAWVRVVVGWG"
a: 0.737

q: Moving on to "VGVWTGWDVDCH"
a: 0.742

q: Moving on to "QFLWCFRPCCCS"
a: 0.584

====

# maps each entry to its protein stability index
test system: Saccharomyces cerevisiae; assay: protein stability index of tFT-peptide fusion (C-terminal peptide) (PSI (0-1 scale)); higher = more stable (slower turnover); settings: genetic background: wild type; temperature: 30 C
Lab note: jot down the number only; don't add units.

Use these answered entries as a reference point.
INSERT INTO results (residues, measured_parameter, recorded_result) VALUES
  ('LFSCTQLLPITA', 'protein stability index', 0.176),
  ('WFLFVLCAWGFF', 'protein stability index', 0.241),
  ('RLILAIVVSGGL', 'protein stability index', 0.305);

q: Query: protein stability index; subject: "NECLSSKWLRIC"
a: 0.111

====

system: Saccharomyces cerevisiae; assay: protein stability index of tFT-peptide fusion (C-terminal peptide) (PSI (0-1 scale)); higher = more stable (slower turnover); conditions: genetic background: das1 deletion; temperature: 37 C
Label rule, in plain words: protein stability index of 0.5 and up is Y, under 0.5 is N.

Consider the following illustrative entries.
INSERT INTO measurements (residues, group_label) VALUES
  ('SSCLPAPPPLPL', 'Y'),
  ('VYVRYYVRVVVI', 'N'),
  ('LGFSHTRAIFFV', 'Y'),
  ('VGFYGRWVCVAC', 'N');

q: Reported protein stability index at or above 0.5? "VSFGELGVEVVG"
a: Y

q: Moving on to "GKKKREWKKNRI"
a: Y

q: Moving on to "RGLANLIVIVSS"
a: Y

q: Moving on to "LLMFWLSIWFWG"
a: N

q: Moving on to "LYSVLWFCFPLV"
a: Y

q: Moving on to "LWVTRVYCLLVC"
a: N

q: Moving on to "CTFFCICVFFLL"
a: N

====

system: Saccharomyces cerevisiae; assay: protein stability index of tFT-peptide fusion (C-terminal peptide) (PSI (0-1 scale)); higher = more stable (slower turnover); conditions: genetic background: wild type; temperature: 37 C
measured parameter: protein stability index

Use these answered entries as a reference point.
INSERT INTO measurements (residues, recorded_result) VALUES
  ('SQSNQSIIRKNV', 0.551),
  ('PDCRPPLVRCLL', 0.936);

Here is the next item to consider.
q: Query: protein stability index; subject: "SIPFWPVLFFLL"
a: 0.0952

====

# maps each entry to its protein stability index
test system: Saccharomyces cerevisiae; test: protein stability index of tFT-peptide fusion (C-terminal peptide) (PSI (0-1 scale)); higher = more stable (slower turnover); conditions: genetic background: wild type; temperature: 30 C
Lab note: jot down the number only; don't add units.

Use these answered entries as a reference point.
INSERT INTO assay_data (residues, measured_parameter, recorded_result) VALUES
  ('NHPSNDSGNEKN [HCM1 C-terminal 12 aa]', 'protein stability index', 0.656),
  ('NNFCALYNLSNP [RPN14 C-terminal 12 aa]', 'protein stability index', 0.687),
  ('EKLAALVENAEV [PUF3 C-terminal 12 aa]', 'protein stability index', 0.679),
  ('KQSVQQQKTGNY [YHL009W-A C-terminal 12 aa]', 'protein stability index', 0.663),
  ('LANFSNEVAMNN [SWP82 C-terminal 12 aa]', 'protein stability index', 0.738),
  ('NIREARYEQQLK [CTF4 C-terminal 12 aa]', 'protein stability index', 0.689);

q: Query: protein stability index; subject: QAKFFYQDLMSL [YHL046W-A C-terminal 12 aa]
a: 0.739

q: Moving on to GESVDKVTKNEQ [YPR114W C-terminal 12 aa]
a: 0.662

====

tested on: Saccharomyces cerevisiae; experiment: protein stability index of tFT-peptide fusion (C-terminal peptide) (PSI (0-1 scale)); higher = more stable (slower turnover); details: genetic background: wild type; temperature: 30 C
# maps each entry to its protein stability index
Lab note: jot down the number only; don't add units.

Use these answered entries as a reference point.
INSERT INTO assay_data (residues, recorded_result) VALUES
  ('NHFQYHSPVASE', 0.688),
  ('WWHVLLGGCGCW', 0.753),
  ('SHASTPSSRVIP', 0.716),
  ('CLAIWSNLNECH', 0.715),
  ('PPPRPPSTTSPC', 0.704);

q: Query: protein stability index; subject: "SMPKMGISGVIY"
a: 0.617

q: Moving on to "IVNDEHVHTYTR"
a: 0.743

q: Moving on to "PPSVPAPPLPDP"
a: 0.675

q: Moving on to "SLLPCAPHPRPV"
a: 0.662

q: Moving on to "LRPQKIPASSEA"
a: 0.678

q: Moving on to "FLLCISGFSSFL"
a: 0.592

q: Moving on to "YNSSSYCGGGCG"
a: 0.684

q: Moving on to "HLSPPPLPPLTS"
a: 0.696

q: Moving on to "QLPPRLSRRLPP"
a: 0.741

q: Moving on to "SPPPPRLPSHPS"
a: 0.613

q: Moving on to "LSARPFPPLMYS"
a: 0.697

q: Moving on to "PPPRPPLPPPPS"
a: 0.727

q: Moving on to "RLILAIVVSGGL"
a: 0.389

q: Moving on to "SDCPYVYVRVRD"
a: 0.69

q: Moving on to "ASFHPIAPVSTP"
a: 0.686

q: Moving on to "SNLYNNQEQDHT"
a: 0.723

q: Moving on to "YPTSLLHLHSPP"
a: 0.708

q: Moving on to "GGSSVGALGCLC"
a: 0.687

q: Moving on to "APPPNSLPPPPP"
a: 0.72

q: Moving on to "ILNKYYEQSMRT"
a: 0.68

q: Moving on to "PRPLPVCTDVHD"
a: 0.642

q: Moving on to "CTFFCICVFFLL"
a: 0.392

q: Moving on to "KRNKDFIYTYRL"
a: 0.696

q: Moving on to "RPGNIRNNKKKK"
a: 0.688

q: Moving on to "SFRLRSLVFGFF"
a: 0.597

q: Moving on to "FSRPPPFPLFSS"
a: 0.69

q: Moving on to "KQKKKRKSRRKK"
a: 0.65

q: Moving on to "LFFWVLTVMFVW"
a: 0.302

q: Moving on to "FCGDFGGAYGLW"
a: 0.706

q: Moving on to "LLPLLPPAPPSP"
a: 0.687
